biological target: Neu5Ac(a2-6)Gal(b1-4)GlcNAc(b1-2)Man(a1-3)[Neu5Ac(a2-3)Gal(b1-4)GlcNAc(b1-2)Man(a1-6)]Man(b1-4)GlcNAc(b1-4)GlcNAc; experiment: glycan array binding signal (z-score within array); higher = stronger binding; settings: glycan notation: IUPAC condensed, linker removed
Shown is part of a subset that was picked to be rich in the strongest signals.
Consider the following binders; for each one, report its glycan array binding signal (z-score).
Returns: the value as a bare number; no unit string appended.

Ask | Look up glycan array binding signal (z-score): SSR1 (Sclerotium rolfsii), A0A0M3KL30 (protein) TYKITVRVYQTNPDAFFHPVEKTVWKYANGGTWTITDDQHVLTMGGSGTSGTLRFHADNGESFTATFGVHNYKRWCDIVTNLAADETGMVINQQYYSQKNREEARERQLSNYQVKNAKGRNFQIVYTEAEGNDLHANLIIG
Reply | -0.339

Ask | Repeat for the following binder: Apa (Mycobacterium tuberculosis), Rv1860 (protein) MHQVDPNLTRRKGRLAALAIAAMASASLVTVAVPATANADPEPAPPVPTTAASPPSTAAAPPAPATPVAPPPPAAANTPNAQPGDPNAAPPPADPNAPPPPVIAPNAPQPVRIDNPVGGFSFALPAGWVESDAAHFDYGSALLSKTTGDPPFPGQPPPVANDTRIVLGRLDQKLYASAEATDSKAAARLGSDMGEFYMPYPGTRINQETVSLDANGVSGSASYYEVKFSDPSKPNGQIWTGVIGSPAANAPDAGPPQRWFVVWLGTANNPVDKGAAKALAESIRPLVAPPPAPAPAPAEPAPAPAPAGEVAPTPTTPTPQRTLPA
Reply | -0.473
